system: peripheral blood mononuclear cells (PBMC); assay: Anti-proliferative or immunosuppressive activity, BrdU incorporation in PHA-stimulated PBMC; type: cell-based; conditions: PHA 3 μg/ml, 60 hour compound treatment; read-out: EMV PBMC IC50
Starred links: 1 amine or outer side, 2 acyl side, 3 side chain; linkers in the order of their positions; H or OH if unused. Non-standard residues stand in square brackets, D forms with d. Residues, ends and D or L forms follow the SMILES beside them. X34 = C[C@H](COC(=O)N1CCOCC1)[C@@H](C(=O)[*:2])N(C)[*:1]; MeBmt = C/C=C/C[C@@H](C)[C@@H](O)[C@H](NC)C(=O)O; NMeVal(4-OMe,3S) = CN[C@H](C(=O)O)[C@H](C)COC; NMeL = CN[C@@H](CC(C)C)C(=O)O; NMeV = CN[C@H](C(=O)O)C(C)C; dNMeS = CN[C@H](CO)C(=O)O; dNMeA = CN[C@H](C)C(=O)O; Abu = CC[C@H](N)C(=O)O
Endpoint label: pIC50
Note on pIC50: it is the negative log10 of concentration, concentration in mol/L.

Query string: Entry under review: C/C=C/C[C@@H](C)[C@@H](O)[C@H]1C(=O)N[C@@H](CC)C(=O)N(C)[C@H](CO)C(=O)N(C)[C@@H]([C@H](C)COC)C(=O)N[C@@H](C(C)C)C(=O)N(C)[C@@H](CC(C)C)C(=O)N[C@@H](C)C(=O)N[C@H](C)C(=O)N(C)[C@@H](CC(C)C)C(=O)N(C)[C@@H](CC(C)C)C(=O)N(C)[C@@H](C(C)C)C(=O)N1C [Compound 3.2.3] (cyclo(A[dA][NMeL][NMeL][NMeV][MeBmt][Abu][dNMeS][NMeVal(4-OMe,3S)]V[NMeL])) . Reported pIC50?
Result string: 5.05

Query string: Quick one: C/C=C/C[C@@H](C)[C@@H](O)[C@H]1C(=O)N[C@@H](CC)C(=O)N(C)[C@H](C)C(=O)N(C)[C@@H]([C@H](C)COC(=O)N2CCOCC2)C(=O)N[C@@H](C(C)C)C(=O)N(C)[C@@H](CC(C)C)C(=O)N[C@@H](C)C(=O)N[C@H](C)C(=O)N(C)[C@@H](CC(C)C)C(=O)N(C)[C@@H](CC(C)C)C(=O)N(C)[C@@H](C(C)C)C(=O)N1C [Compound 2.5.7] (cyclo([MeBmt][Abu][dNMeA][X34]V[NMeL]A[dA][NMeL][NMeL][NMeV]))
Result string: 4.71

----------
biological target: cyclophilin A (CypA) (Homo sapiens (Human)); experiment: Inhibitor binding to cyclophilin proteins by SPR, CypA; set-up: unit not given here; settings: 1:1 binding model;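 further: Single-cycle kinetics on a Biacore T200, compound injected at several concentrations for 1 min each at 50 µL/min, then 10 min dissociation, in HEPES pH 7.4 buffer with 3% DMSO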
Sequence (P62937 whole entry): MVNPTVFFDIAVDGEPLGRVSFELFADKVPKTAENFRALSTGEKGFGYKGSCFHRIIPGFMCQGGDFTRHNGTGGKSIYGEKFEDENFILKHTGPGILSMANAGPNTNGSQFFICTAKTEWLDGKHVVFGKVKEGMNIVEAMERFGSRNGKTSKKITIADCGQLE
Starred links: 1 amine or outer side, 2 acyl side, 3 side chain; linkers in the order of their positions; H or OH if unused. Non-standard residues stand in square brackets, D forms with d. Residues, ends and D or L forms follow the SMILES beside them. X25 = CCN1CCO[C@H](COC[C@@H](C)[C@@H](C(=O)[*:2])N(C)[*:1])C1; X73 = CO[C@H]1CCN(CCOC[C@@H](C)[C@@H](C(=O)[*:2])N(C)[*:1])C1; X18 = C[C@H](CCC(C)(C)O)[C@@H](C(=O)[*:2])N(C)[*:1]; MeBmt = C/C=C/C[C@@H](C)[C@@H](O)[C@H](NC)C(=O)O; X24 = C[C@H](CO)[C@@H](C(=O)[*:2])N(C)[*:1]; NMeL = CN[C@@H](CC(C)C)C(=O)O; NMeV = CN[C@H](C(=O)O)C(C)C; dNMeA = CN[C@H](C)C(=O)O; Abu = CC[C@H](N)C(=O)O
hey, just use Criterion met if measured CypA Kd is less than 2, otherwise Criterion not met

Query string: Please check: CypA Kd for C/C=C/C[C@@H](C)[C@@H](O)[C@H]1C(=O)N[C@@H](CC)C(=O)N(C)[C@H](C)C(=O)N(C)[C@@H]([C@H](C)CO)C(=O)N[C@@H](C(C)C)C(=O)N(C)[C@@H](CC(C)C)C(=O)N[C@@H](C)C(=O)N[C@H](C)C(=O)N(C)[C@@H](CC(C)C)C(=O)N(C)[C@@H](CC(C)C)C(=O)N(C)[C@@H](C(C)C)C(=O)N1C [Compound 2.5.1] (cyclo(A[dA][NMeL][NMeL][NMeV][MeBmt][Abu][dNMeA][X24]V[NMeL])) , strictly under 2 or not?
Result string: Criterion not met

Query string: Quick one: C/C=C/C[C@@H](C)[C@@H](O)[C@H]1C(=O)N[C@@H](CC)C(=O)N(C)[C@H](C)C(=O)N(C)[C@@H]([C@H](C)COCCN2CCN3C(=O)OC[C@@H]3C2)C(=O)N[C@@H](C(C)C)C(=O)N(C)[C@@H](CC(C)C)C(=O)N[C@@H](C)C(=O)N[C@H](C)C(=O)N(C)[C@@H](CC(C)C)C(=O)N(C)[C@@H](CC(C)C)C(=O)N(C)[C@@H](C(C)C)C(=O)N1C [Compound 2.8.11]
Result string: Criterion met

Query string: Quick one: C/C=C/C[C@@H](C)[C@@H](O)[C@H]1C(=O)N[C@@H](CC)C(=O)N(C)[C@H](C)C(=O)N(C)[C@@H]([C@H](C)CCC(C)(C)O)C(=O)N[C@@H](C(C)C)C(=O)N(C)[C@@H](CC(C)C)C(=O)N[C@@H](C)C(=O)N[C@H](C)C(=O)N(C)[C@@H](CC(C)C)C(=O)N(C)[C@@H](CC(C)C)C(=O)N(C)[C@@H](C(C)C)C(=O)N1C [Compound 2.12] (cyclo(A[dA][NMeL][NMeL][NMeV][MeBmt][Abu][dNMeA][X18]V[NMeL]))
Result string: Criterion not met

Query string: Quick one: C/C=C/C[C@@H](C)[C@@H](O)[C@H]1C(=O)N[C@@H](CC)C(=O)N(C)[C@H](C)C(=O)N(C)[C@@H]([C@H](C)COCCN2CC[C@H](OC)C2)C(=O)N[C@@H](C(C)C)C(=O)N(C)[C@@H](CC(C)C)C(=O)N[C@@H](C)C(=O)N[C@H](C)C(=O)N(C)[C@@H](CC(C)C)C(=O)N(C)[C@@H](CC(C)C)C(=O)N(C)[C@@H](C(C)C)C(=O)N1C [Compound 2.8.7] (cyclo(A[dA][NMeL][NMeL][NMeV][MeBmt][Abu][dNMeA][X73]V[NMeL]))
Result string: Criterion met

Query string: Quick one: C/C=C/C[C@@H](C)[C@@H](O)[C@H]1C(=O)N[C@@H](CC)C(=O)N(C)[C@H](C)C(=O)N(C)[C@@H]([C@H](C)COC[C@@H]2CN(CC)CCO2)C(=O)N[C@@H](C(C)C)C(=O)N(C)[C@@H](CC(C)C)C(=O)N[C@@H](C)C(=O)N[C@H](C)C(=O)N(C)[C@@H](CC(C)C)C(=O)N(C)[C@@H](CC(C)C)C(=O)N(C)[C@@H](C(C)C)C(=O)N1C [Compound 2.20.1] (cyclo(A[dA][NMeL][NMeL][NMeV][MeBmt][Abu][dNMeA][X25]V[NMeL]))
Result string: Criterion met
